SYSTEM: SmcR (Vibrio vulnificus, UniProt Q9L8G8)
Construct: full-length, His-tagged SmcR (homodimer); residues 1–15 not modeled in the crystal structure
Sequence (Q9L8G8 entry or part of it): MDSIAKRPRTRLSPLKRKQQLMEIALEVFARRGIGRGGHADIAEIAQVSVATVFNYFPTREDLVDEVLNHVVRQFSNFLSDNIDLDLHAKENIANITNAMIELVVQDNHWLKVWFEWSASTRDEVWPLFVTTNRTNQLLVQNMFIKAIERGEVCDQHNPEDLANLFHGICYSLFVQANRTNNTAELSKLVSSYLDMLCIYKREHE
ASSAY_NOTES: X-ray crystal structure ([…] Å) and isothermal titration calorimetry with purified protein; SAXS
pKd: −log10 of the molar value.
ASSAY_ENDPOINT: pKd

Give its pKd value. Item: O=S(=O)(c1cccs1)n1ccc(-c2ccccc2)n1
~6.00
